Taken from ChEMBL document CHEMBL4680189.

Assay: Selectivity index, ratio of IC50 for cytotoxicity against human Jurkat T cells by MTT assay to EC50 for antiproliferative activity against human Jurkat T cells by VPD450 staining based flow cytometry
Where a SMILES comes first, the peptide text is derived from it. [ ]: non-standard residue; d: D form. The star is where a group is joined. Mycophenolyl = COc1c(C)c2c(c(O)c1C/C=C(\C)CCC(=O)*)C(=O)OC2; Arg(NO2) = N=C(NCCC[C@H](N)C(=O)O)N[N+](=O)[O-]
Quantity Kind: Ratio IC50/EC50
One number for each entry.

Worked set:
COC(=O)[C@@H](NC(=O)[C@H](CCCCN)NC(=O)[C@@H]1CCCN1C(=O)[C@H](CCCNC(=N)N[N+](=O)[O-])NC(=O)CC/C(C)=C/Cc1c(O)c2c(c(C)c1OC)COC2=O)[C@@H](C)O (Mycophenolyl-[Arg(NO2)]PKT-OMe) : 1.5
COc1c(C)c2c(c(O)c1C/C=C(\C)CCC(=O)N[C@H](C(=O)O)[C@@H](C)O)C(=O)OC2 : 0.5

Short answer for COc1c(C)c2c(c(O)c1C/C=C(\C)CCC(=O)N[C@@H](C(=O)O)[C@H](C)O)C(=O)OC2 : Ratio IC50/EC50 was 11
